The values you see were collected from patent US8288399B2.

- System: Mouse abdominal cavity macrophages
- procedureText: Suppression of macrophage (microglia model) activation caused by β-amyloid, nitrogen monoxide production (Griess)
- Format: cell-based
- conditionDetails: Aβ1-42 20 μg/ml, 72 hours, mouse interferon γ 250 U/ml and polymyxin B 10 μg/ml, NO production, absorbance at 570 nm
Listing of entries alongside the reported IC50.

molecule: Cc1nc2ncnn2c2c1CCN2Cc1ccccc1F [Compound E]
IC50 [µg/mL]: 3.2
--
molecule: c1ccc(CCN2CCc3c(C4CC4)nc4ncnn4c32)cc1 [Compound A]
IC50 [µg/mL]: 0.4
--
molecule: Cc1nc2ncnn2c2c1ccn2Cc1ccccc1Cl [Compound G]
IC50 [µg/mL]: 3.8
--
molecule: Cc1nc2ncnn2c2c1CCN2Cc1ccccc1 [Compound I]
IC50 [µg/mL]: 4.3
--
molecule: Cc1nc2ncnn2c2c1CCN2Cc1ccccc1Cl [Compound J]
IC50 [µg/mL]: 5

---

Listing of entries alongside the reported log10 of IC50.
- System: Mouse abdominal cavity macrophages
- procedureText: Suppression of macrophage (microglia model) activation caused by β-amyloid, nitrogen monoxide production (Griess)
- Type: cell-based
- conditionDetails: Aβ1-42 20 μg/ml, 72 hours, mouse interferon γ 250 U/ml and polymyxin B 10 μg/ml, NO production, absorbance at 570 nm
reportedMetric: log10 of IC50 (log10 of the value in µg/mL)

compound: Cc1nc2ccnn2c2c1CCN2Cc1ccccc1
log10 of IC50: 0.60
//
compound: Cc1nc2ncnn2c2c1CC(C)N2Cc1ccccc1Cl (stereo not drawn)
log10 of IC50: 0.56
//
compound: Cc1nc2ncnn2c2c1CC(C)N2Cc1ccccc1F (stereo not drawn)
log10 of IC50: 0.36
//
compound: Cc1nc2ncnn2c2c1CCN2C(C)(C)c1ccccc1
log10 of IC50: 0.70
//
compound: Cc1nc2ncnn2c2c1CCN2C(C)c1ccccc1 (stereo not drawn)
log10 of IC50: -0.40
//
compound: Cc1nc2ncnn2c2c1CCN2CCc1ccccc1
log10 of IC50: -0.30
